Every entry's value here was drawn from paper PMC10329608.

Assay type: physicochemical
REPORTED CONDITIONS: pH 7.4
Starred links: 1 amine or outer side, 2 acyl side, 3 side chain; linkers in the order of their positions; H or OH if unused. Non-standard residues stand in square brackets, D forms with d. Residues, ends and D or L forms follow the SMILES beside them. *: point of attachment. DOTA = O=C(O)CN1CCN(CC(=O)O)CCN(CC(=O)*)CCN(CC(=O)O)CC1; d(γGlu) = O=C(O)[C@@H](CCC(=O)[*:2])N[*:1]; 1Nal = N[C@@H](Cc1cccc2ccccc12)C(=O)O; NMeNle = CCCC[C@H](NC)C(=O)O; PEG4 = NCCOCCOCCOCCOCCC(=O)O
Exercise: for every item that follows, state its recorded logD.
The reply should be a number, written without any unit.

**Q:** What does the record list as logD for CCCC[C@@H](C(=O)N[C@@H](CC(=O)O)C(=O)N[C@@H](Cc1cccc2ccccc12)C(N)=O)N(C)C(=O)[C@H](Cc1c[nH]c2ccccc12)NC(=O)CNC(=O)CNC(=O)CNC(=O)CC[C@@H](NC(=O)CN1CCN(CC(=O)O)CCN(CC(=O)O)CCN(CC(=O)O)CC1)C(=O)O [[^nat/177Lu]Lu-DOTA-CCK-58, metal not drawn] ({DOTA-d(γGlu)}-GGGW[NMeNle]D[1Nal]-NH2) ?
**A:** -2.66

**Q:** Follow-up entry: CCCC[C@@H](C(=O)N[C@@H](CC(=O)O)C(=O)N[C@@H](Cc1cccc2ccccc12)C(N)=O)N(C)C(=O)[C@H](Cc1c[nH]c2ccccc12)NC(=O)CCOCCOCCOCCOCCNC(=O)CN1CCN(CC(=O)O)CCN(CC(=O)O)CCN(CC(=O)O)CC1 [[^nat/177Lu]Lu-DOTA-CCK-64, metal not drawn] ({DOTA-PEG4}-W[NMeNle]D[1Nal]-NH2)
**A:** -2.21

**Q:** Follow-up entry: CCCC[C@@H](C(=O)N[C@@H](CC(=O)O)C(=O)N[C@@H](Cc1cccc2ccccc12)C(N)=O)N(C)C(=O)[C@H](Cc1c[nH]c2ccccc12)NC(=O)CNC(=O)CN1CCN(CC(=O)O)CCN(CC(=O)O)CCN(CC(=O)O)CC1 [[^nat/177Lu]Lu-DOTA-CCK-62, DOTA-Gly-Trp-(N-Me)Nle-Asp-1-Nal-NH2, metal not drawn] ({DOTA}-GW[NMeNle]D[1Nal]-NH2)
**A:** -1.34
